Sourced from the METLIN SMRT retention time set (Domingo-Almenara et al. 2019)

- measurement_description: gradient 5% acetonitrile 3 min, to 50% in 2 min, to 85% in 15 min, held 3 min, 100 µL/min
- measurement_context: column: Zorbax Extend-C18 2.1 x 50 mm; eluents: water / acetonitrile, 0.1% formic acid
readout_kind: RP-LC retention time (s)

{"columns": ["compound", "result_unit", "RP-LC retention time"],
 "data": [
  ["CC(C)NC(=O)c1ccc(-c2nc3cc(NS(=O)(=O)Cc4ccccc4)ccc3n2C)cc1", "s", 667],
  ["CC(=O)Nc1cccc(N2CC(C(=O)Nc3cccc(C(F)(F)F)c3)CC2=O)c1 (stereo not given)", "s", 775],
  ["CCn1nccc1-c1nc(C2CC(=O)N(c3ccc(C)cc3)C2)no1 (stereo not given)", "s", 680],
  ["COc1ccc(-c2nnc(SCc3ccc(C#N)cc3)o2)cc1", "s", 948],
  ["CCC(C)(C)C(=O)N1CCC2(CCc3nn(Cc4ccccc4)c(=O)n3CC2)CC1", "s", 811]
]}

###

- measurement_description: gradient 5% acetonitrile 3 min, to 50% in 2 min, to 85% in 15 min, held 3 min, 100 µL/min
- measurement_context: column: Zorbax Extend-C18 2.1 x 50 mm; eluents: water / acetonitrile, 0.1% formic acid
readout_kind: RP-LC retention time (s)

{"columns": ["compound", "result_unit", "experimental_value"],
 "data": [
  ["O=C(NC1CC1)C1CCN(C(=O)c2ncn3c2COC(c2ccc(Cl)cc2)C3)CC1 (stereo not drawn)", "s", 713]
]}

[a] COc1cc(OC)c2c(C)cc(=O)oc2c1
[b] CN(C)c1nc(Nc2ccc(F)cc2)c2cnn(-c3ccccc3)c2n1
Please choose the item with the lower RP-LC retention time value from this pair: a and b Kindly state the label of the option you pick.
a

###

- measurement_description: gradient 5% acetonitrile 3 min, to 50% in 2 min, to 85% in 15 min, held 3 min, 100 µL/min
- measurement_context: column: Zorbax Extend-C18 2.1 x 50 mm; eluents: water / acetonitrile, 0.1% formic acid
readout_kind: RP-LC retention time (s)

{"columns": ["molecule", "result_unit", "RP-LC retention time"],
 "data": [
  ["Cc1ccc(NC(=O)CNS(=O)(=O)c2cc(-c3noc(C)n3)sc2C)nc1", "s", 730]
]}

[a] CCOC(=O)C1=C(CN(CC)CC)N(C)C(=O)NC1c1ccccc1 (stereo unspecified)
[b] Cc1ccc(S(=O)(=O)NCC(=O)Nc2ccc3c(c2)Cc2ccccc2-3)cc1
Between the entries labelled a and b , which has a larger RP-LC retention time value on record? Select an item and report its label.
b
(b: 975 s, a: 618 s)

###

- measurement_description: gradient 5% acetonitrile 3 min, to 50% in 2 min, to 85% in 15 min, held 3 min, 100 µL/min
- measurement_context: column: Zorbax Extend-C18 2.1 x 50 mm; eluents: water / acetonitrile, 0.1% formic acid
readout_kind: RP-LC retention time (s)

Solved entries:
{"columns": ["molecule", "RP-LC retention time / s"],
 "data": [
  ["COc1ncccc1CNC(=O)NC1CCCCC1", 713],
  ["O=C(Nc1ccc(Cl)cc1C(F)(F)F)N1CCC(n2cnnc2C2CC2)C1 (stereo not drawn)", 704],
  ["COCCCNC(=O)C1CCCN(S(=O)(=O)c2cc(OC)ccc2OC)C1 (stereo not drawn)", 699],
  ["CCn1nc(C)c(-c2cc(C(=O)NCC3Cn4cccc4C(=O)N3C)no2)c1C (stereo not drawn)", 679],
  ["Cc1ccc(CNC(=O)C2CCN(c3cnc(N4CCCC4)nc3)CC2)cc1", 680],
  ["CCNC(=O)N1CCOc2cc(C)ccc21", 768],
  ["CC1(C)CC(=O)c2cn(-c3ccccc3)c(=O)c(C(=O)Nc3cccnc3)c2C1", 700],
  ["O=C(COc1ccc(Br)cc1)Nc1ccnn1Cc1cccs1", 916]
]}

[A] O=C(Nc1ccc(F)cc1F)N1CCN(Cc2nc3cc(-c4ccccc4)ccc3o2)CC1
[B] CCN1CCN(C(=O)c2nc(N(CC)CC)c3c(C)cc(C)nc3n2)CC1
Between these two entries, A and B , state which has the higher RP-LC retention time. Refer to your chosen item by its label in the answer.
A
(A: 869 s, B: 550 s)

[A] CC(C)Cn1cc(CCNS(=O)(=O)c2cccc(Cl)c2)c2cccnc21
[B] Cc1cc(C(=O)N2CCC3(CC2)CC(C)(O)CCO3)c(C)o1 (stereo not drawn)
I'm curious, which of these has a smaller RP-LC retention time number: A or B ? Answer by quoting the chosen item's label.
B
(B: 677 s, A: 985 s)

###

- measurement_description: gradient 5% acetonitrile 3 min, to 50% in 2 min, to 85% in 15 min, held 3 min, 100 µL/min
- measurement_context: column: Zorbax Extend-C18 2.1 x 50 mm; eluents: water / acetonitrile, 0.1% formic acid
readout_kind: RP-LC retention time (s)

[1] CCCNC(=O)CSc1nc2nc(C)cc(C)n2n1
[2] CCn1cc(-c2nc(C(=O)Nc3ccc(C)c(F)c3)cs2)c2cccnc21
Rank 1 against 2 by their RP-LC retention time values and give the higher one. Kindly give the label for the entry you pick.
2

###

- measurement_description: gradient 5% acetonitrile 3 min, to 50% in 2 min, to 85% in 15 min, held 3 min, 100 µL/min
- measurement_context: column: Zorbax Extend-C18 2.1 x 50 mm; eluents: water / acetonitrile, 0.1% formic acid
readout_kind: RP-LC retention time (s)

{"columns": ["molecule", "readout_kind", "experimental_value"],
 "data": [
  ["O=S(=O)(Nc1ccc(Cn2cncn2)cc1)c1ccc(F)cc1", "RP-LC retention time", 701],
  ["CCOC(=O)CC1(NC(=O)Nc2ccc3nc(C)cc(OC)c3c2)CCCCC1", "RP-LC retention time", 689],
  ["CCNC(=O)C1CCCN(c2nc3ncn(CC(=O)Nc4cccc(Cl)c4)c(=O)c3s2)C1 (centres undefined)", "RP-LC retention time", 701],
  ["COc1ccc(NC(=O)c2cn3c(n2)CSCC3)cc1F", "RP-LC retention time", 694]
]}

###

- measurement_description: gradient 5% acetonitrile 3 min, to 50% in 2 min, to 85% in 15 min, held 3 min, 100 µL/min
- measurement_context: column: Zorbax Extend-C18 2.1 x 50 mm; eluents: water / acetonitrile, 0.1% formic acid
readout_kind: RP-LC retention time (s)

{"columns": ["test_smiles", "RP-LC retention time, s"],
 "data": [
  ["COc1cc2nc(C(=O)N3CCCCC3)cc(Nc3ccc(F)c(F)c3)c2cc1OC", 720],
  ["Cn1cc2c3c(cccc31)CN(C(=O)C1CCC1)CC2", 878],
  ["Cc1ccc(C)c(-c2cn3ccn(-c4cccc(F)c4)c(=O)c3n2)c1", 892]
]}

###

- measurement_description: gradient 5% acetonitrile 3 min, to 50% in 2 min, to 85% in 15 min, held 3 min, 100 µL/min
- measurement_context: column: Zorbax Extend-C18 2.1 x 50 mm; eluents: water / acetonitrile, 0.1% formic acid
readout_kind: RP-LC retention time (s)

{"columns": ["test_smiles", "RP-LC retention time (s)"],
 "data": [
  ["Cc1ccc(Cn2c(=O)c(SCC(=O)NC3CC3)nc3ccccc32)cc1", 893],
  ["Cc1ccc2nc(C(=O)N3CCN(c4ccccc4C)CC3)cn2c1", 664],
  ["COc1ccc2c(CCNC(=O)COc3ccc(Cl)cc3)c[nH]c2c1", 879],
  ["CCCc1c(C(=O)O)nnn1Cc1cccc(OC)c1", 738],
  ["CCn1ncc(NC(=O)c2ccccc2OC)c(N2CCOCC2)c1=O", 829]
]}

###

- measurement_description: gradient 5% acetonitrile 3 min, to 50% in 2 min, to 85% in 15 min, held 3 min, 100 µL/min
- measurement_context: column: Zorbax Extend-C18 2.1 x 50 mm; eluents: water / acetonitrile, 0.1% formic acid
readout_kind: RP-LC retention time (s)

{"columns": ["test_smiles", "RP-LC retention time (s)"],
 "data": [
  ["O=C1CSc2ccc(S(=O)(=O)N3CCN(c4ccccn4)CC3)cc2N1", 604],
  ["Cn1cc(-c2ccc3nnc(C(F)(F)c4ccc5ncccc5c4)n3n2)cn1", 694],
  ["COc1ccc(NC(=O)N2[C@H]3CC[C@@H]2c2cnc(C)nc2C3)c(C)c1", 645]
]}

###

- measurement_description: gradient 5% acetonitrile 3 min, to 50% in 2 min, to 85% in 15 min, held 3 min, 100 µL/min
- measurement_context: column: Zorbax Extend-C18 2.1 x 50 mm; eluents: water / acetonitrile, 0.1% formic acid
readout_kind: RP-LC retention time (s)

As a guide, the following entries are already answered.
{"columns": ["compound", "result_unit", "RP-LC retention time"],
 "data": [
  ["CCOC(=O)c1cnc(N2CCN(c3ccccc3OC)CC2)c2ccccc12", "s", 1150],
  ["CCOc1ccc(-c2nc3ncccn3c2NCc2ccccc2)cc1OC", "s", 697],
  ["COc1ccccc1-c1noc(Cn2c(=O)n(Cc3ccc4c(c3)OCO4)c(=O)c3sccc32)n1", "s", 956],
  ["CCOC(=O)C1CCN(C(=O)CN2C(=O)C3CCCCN3c3ccc(C(=O)N(C)C)cc32)CC1 (stereo not given)", "s", 732],
  ["O=C(c1cccs1)N1CCC2(CC1)NC(=O)N(Cc1cccc(Cl)c1)C2=O", "s", 810],
  ["Cc1ccc(CNC(=O)N2CCN(C(=O)N3C[C@H]4C[C@@H](C3)[C@H]3CCCC(=O)N3C4)CC2)cc1", "s", 677],
  ["Cn1cc(C(=O)C(=O)NC2CCCCC2)c2ccccc21", "s", 1070],
  ["COc1cccc(S(=O)(=O)N2C[C@@H](F)C[C@H]2C(=O)N2CCOCC2)c1", "s", 676]
]}

[a] CCOc1ccc(S(=O)(=O)N(C)C)c2ccccc12
[b] O=C([C@@H]1C[C@H](F)CN1C(=O)c1ccccc1Cl)N1CCOCC1
Compare a and b and name the one whose reported RP-LC retention time is smaller. Output the label that corresponds to your choice.
b

[I] Cc1cc(C)cc(Nc2nc(C)cc(=O)n2CC(=O)Nc2ccc3c(c2)OCCO3)c1
[II] CC(C)c1cc(C(=O)NC2CCCCCC2)nc2ccnn12
# returns the entry with the larger RP-LC retention time; inputs I and II Provide the label of your selected option as the answer.
II

[P] O=C(Cc1nnc(-c2cccc(F)c2)o1)Nc1ccccc1
[Q] COc1cccc(-n2c(=O)c(C(=O)Nc3ccc(F)cc3F)c(O)c3cccnc32)c1
// compare measured RP-LC retention time between P and Q ; output the lower one Your choice should be expressed through its label.
P
